The measured values listed here are drawn from PubChem BioAssay (EPA / NIEHS).

Read-out: Glutathione S-transferase M3 (GSTM3), GSTM3 (gene 2947)
measurement.description: LTEA_HepaRG_GSTM3: Life Technologies and Expression Analysis (LTEA) Assay for Glutathione S-transferase M3 (GSTM3) using HepaRG (AID 2283501)
stated.conditions: mRNA level, 48 h; actives raise or lower the signal
Procedure: LTEA_HepaRG is a cell based, multiplexed-readout assay that uses HepaRG, a human liver cell line, with measurements taken at 48 hours after chemical dosing on a 96-well plate.LTEA_HepaRG_GSTM3 is one of 102 assay component(s) measured in the LTEA HepaRG cell culture assay. It is a marker of Oxidative Stress.Data from the assay component LTEA_HepaRG_GSTM3 was analyzed into 1 endpoint. […]
The source made the active and inactive calls. Rule for the calls: active = hit-call score of the fitted dose curve at least 0.9, where 1 is the maximum; inactive = score below 0.9.
Outcomes: active, inactive

- compound: "Clc1ccc(C(c2ccc(Cl)cc2)C(Cl)Cl)cc1"
  label.class: "inactive"
- compound: "ClC1=C(Cl)C2(Cl)C3C(Cl)C=CC3C1(Cl)C2(Cl)Cl (stereo not given)"
  label.class: "inactive"
- compound: "CCCCCCCCOC(=O)c1ccc(C(=O)OCCCCCCCC)c(C(=O)OCCCCCCCC)c1"
  label.class: "inactive"
- compound: "Nc1ccc(N=Nc2ccccc2)cc1"
  label.class: "active"
- compound: "OCCCBr"
  label.class: "inactive"
- compound: "C=CCc1ccc2c(c1)OCO2"
  label.class: "inactive"
- compound: "COC(=O)c1ccccc1N"
  label.class: "inactive"
- compound: "O=[N+]([O-])C(Br)(CO)CO"
  label.class: "inactive"
- compound: "O=C1CCCO1"
  label.class: "inactive"
- compound: "CN(C)C(=O)Nc1ccc(Cl)cc1"
  label.class: "inactive"
- compound: "Cc1ccc(N)c(N)c1"
  label.class: "inactive"
- compound: "Nc1ccc([N+](=O)[O-])cc1"
  label.class: "inactive"
- compound: "Cc1ccc(N=C=O)cc1N=C=O"
  label.class: "inactive"
- compound: "CC(C)(O)c1cnn2c(-c3ccc(F)c(-c4c(F)cccc4C#N)c3)cnc2n1"
  label.class: "inactive"
- compound: "CC(C)(C)OOC(=O)c1ccccc1"
  label.class: "inactive"

----------
Read-out: catalase (CAT), CAT (gene 847)
measurement.description: LTEA_HepaRG_CAT: Life Technologies and Expression Analysis (LTEA) Assay for catalase (CAT) using HepaRG (AID 2283452)
stated.conditions: mRNA level, 48 h; actives raise or lower the signal
Activity calls are given as the source filed them. Rule for the calls: active = hit-call score of the fitted dose curve at least 0.9, where 1 is the maximum; inactive = score below 0.9.
Outcomes: active, inactive

- compound: "Nc1ccc(Oc2ccc(N)cc2)cc1"
  label.class: "inactive"
- compound: "C=CCc1ccc2c(c1)OCO2"
  label.class: "inactive"
- compound: "CCC(C)c1ccc(O)cc1 (stereo not drawn)"
  label.class: "inactive"
- compound: "O=C(Nc1ccccc1)c1ccccc1I"
  label.class: "inactive"
- compound: "Cc1ccc(N=C=O)cc1N=C=O"
  label.class: "active"
- compound: "Cc1cccc(N)c1N"
  label.class: "active"
- compound: "[Cl-].[Cl-].[Hg+2]"
  label.class: "inactive"
- compound: "CCOC(=O)[C@]1(c2ccccc2)Oc2ccccc2[C@@H]1N"
  label.class: "active"
- compound: "CC(C)N(Cc1ccccc1)C(=O)C(C)(C)C"
  label.class: "inactive"
- compound: "Brc1ccc(Oc2ccccc2)cc1"
  label.class: "inactive"
- compound: "ClCCOCCCl"
  label.class: "inactive"
- compound: "CC(C)(C)C(O)(CCc1ccc(Cl)cc1)Cn1cncn1 (stereo not drawn)"
  label.class: "inactive"
- compound: "COc1cc(C=O)cc2c1[C@H](COC(N)=O)[C@]1(OC(C)=O)ON2C[C@H]2[C@@H]1N2C(C)=O"
  label.class: "active"
- compound: "Clc1ccc(C(c2ccc(Cl)cc2)C(Cl)(Cl)Cl)cc1"
  label.class: "inactive"
- compound: "[O-][Cl+]O"
  label.class: "inactive"
- compound: "CCNS(=O)(=O)C(F)(F)C(F)(F)C(F)(F)C(F)(F)C(F)(F)C(F)(F)C(F)(F)C(F)(F)F"
  label.class: "inactive"
- compound: "Nc1ccc(Cc2ccc(N)cc2)cc1"
  label.class: "inactive"
- compound: "COC(=O)c1ccccc1N"
  label.class: "inactive"
